# credit: PubChem BioAssay AID1159580

assay.details: chemical genetic growth profiling, strain panel (AID 1159580);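 also: tested at 20 µM; growth read once vehicle control cultures reached saturation at 30 °C; 1 = growth at the plate median or of vehicle wells; lower values mean less growth of the strain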
condition: S. cerevisiae deletion strains, growth OD, locus YNR052C, strain pop2, stronger effect = lower value
The whole screen tested about 5,500 compounds, of which about 2,000 (36%) were called active. About 18% were inconclusive and are not listed. This is one part of the list.
Criterion: normalized growth strictly under 1. Met: t. Not met: f.

# check: normalized growth < 1 for COc1cc(-c2coc3cc(O[C@@H]4O[C@H](CO)[C@@H](O)[C@H](O)[C@H]4O)c(OC)c(O)c3c2=O)cc(O)c1OC
t

# check: normalized growth < 1 for COc1cc2c(cc1OC)-c1c(oc3c4c(ccc3c1=O)OC(C(C)C)C4)CO2 (stereo not given)
t

# check: normalized growth < 1 for CC1=NN(c2ccccc2)C(=O)C1
t

# check: normalized growth < 1 for CC(=O)O[C@H]1CC[C@]2(C)C3CC(=O)[C@]4(C)C(C(C)=O)=CCC4C3CC[C@H]2C1 (stereo not given in full)
f

---

assay.details: chemical genetic growth profiling, strain panel (AID 1159580)
condition: S. cerevisiae deletion strains, growth OD, locus YHR142W, strain chs7
Out of some 5,500 compounds screened, about 2,000 (36%) were called active. Inconclusive results (about 18%) are left out. Cut-off read from the data, not from the text of the source: active = normalized growth mostly below about 0.91 (no sharp cut-off); inconclusive = no clear call, values can overlap the other calls; inactive = mostly above about 0.92. The list shows a part of the results.
Choose the fitting class; nothing outside 1.0 for active, 0.0 for inactive is accepted.

# outcome recorded in this test, key = COc1ccc2c(c1)[C@]13CCCC[C@H]1[C@H](C2)N(C)CC3
0.0

# outcome recorded in this test, key = CNS(=O)(=O)c1ccc(NC(=O)c2ccccc2C(=O)O)cc1
0.0

# outcome recorded in this test, key = C#CC1(O)CCC2C3CCC4=CC(=O)CCC4(C)C3CCC21C (centres undefined)
0.0

# outcome recorded in this test, key = C[C@]12CCC(=O)C=C1CCC1C2[C@@H](O)C[C@@]2(C)C1CC[C@]2(O)C(=O)COC(=O)CCC(=O)O (some centres undefined)
0.0

# outcome recorded in this test, key = CC(=O)OC[C@H]1O[C@@H](Oc2cc(OC(C)=O)c3c(=O)cc(-c4ccc(OC(C)=O)cc4)oc3c2)[C@H](OC(C)=O)[C@@H](OC(C)=O)[C@@H]1OC(C)=O
0.0

# outcome recorded in this test, key = CC(=O)NS(=O)(=O)c1ccc(NC(=O)c2ccccc2C(=O)O)cc1
0.0

# outcome recorded in this test, key = COc1cc(-c2oc3cc(O)ccc3c(=O)c2O)ccc1O
1.0

# outcome recorded in this test, key = O=c1c(O)c(-c2ccc(O)c(O)c2)oc2cc(O)ccc12
0.0

# outcome recorded in this test, key = C[C@]12CCC(=O)C=C1CCC1C2C(=O)C[C@@]2(C)C1CC[C@]2(O)C(=O)CO (some centres undefined)
0.0

---

assay.details: chemical genetic growth profiling, strain panel (AID 1159580);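 also: tested at 20 µM; growth read once vehicle control cultures reached saturation at 30 °C; 1 = growth at the plate median or of vehicle wells; lower values mean less growth of the strain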
condition: S. cerevisiae deletion strains, growth OD, locus YMR125W, strain sto1
Hit rate of the full screen: of about 5,500 compounds, about 2,000 (36%) were called active. About 18% were inconclusive and are not listed. Cut-off read from the data, not from the text of the source: active = normalized growth mostly below about 0.91 (no sharp cut-off); inconclusive = no clear call, values can overlap the other calls; inactive = mostly above about 0.92. The list shows a part of the results. *1 amine or outer side, *2 acyl side, *3 side chain or, on linkers, in order; H or OH if unused. Where a SMILES comes first, the peptide text is derived from it. Bridges are numbered along the chain shown (N, C = ends). [ ]: non-standard residue; d: D form. The star is where a group is joined. ξ: configuration not given here. ΔAla(E,3-NHCONH2) = NC(=O)N/C=C(/N)C(=O)O; X2 = NC1=NCCC(C(N[*:1])C(=O)[*:2])N1; ξβ3hOrn = NCCCC(N)CC(=O)*; Dap = NC[CH](N)C(=O)O
Choose the fitting class; nothing outside active, inactive is accepted.

# outcome recorded in this test, key = CNCC[C@@H](Oc1ccccc1)c1ccccc1
inactive

# outcome recorded in this test, key = CN1CCN(CCCN2c3ccccc3Sc3ccc(C(F)(F)F)cc32)CC1
active

# outcome recorded in this test, key = Cc1cc(C(C)(C)C)cc(C)c1CC1=NCCN1
inactive

# outcome recorded in this test, key = CC[C@H]1CN2CCc3cc(OC)c(OC)cc3C2C[C@@H]1CC1NCCc2cc(OC)c(OC)cc21 (some centres not stated)
inactive

# outcome recorded in this test, key = CC[C@@H](CO)NC(=O)[C@@H]1C=C2c3cccc4[nH]cc(c34)C[C@H]2N(C)C1
inactive

# outcome recorded in this test, key = NCCCC(N)CC(=O)NCC1NC(=O)C(CO)NC(=O)C(N)CNC(=O)C(C2CCN=C(N)N2)NC(=O)/C(=C\NC(N)=O)NC1=O (stereo not drawn) (H-[Dap]S[Dap](ξβ3hOrn)[ΔAla(E,3-NHCONH2)][X2]; lactam 1-C; configuration not given here)
inactive

# outcome recorded in this test, key = CC1=NN(c2ccccc2)C(=O)C1
inactive

# outcome recorded in this test, key = NC(=O)N1c2ccccc2C=Cc2ccccc21
inactive

# outcome recorded in this test, key = COc1cc2cc3c4cc(OC)c(OC)cc4cc[n+]3c(C)c2cc1OC
inactive

# outcome recorded in this test, key = CC1(C)C(=O)[C@@H]2C[C@@]3(O)C4=CC(=O)O[C@@H](c5ccoc5)[C@]4(C)CCC3[C@@](C)(C2=O)[C@H]1CC(=O)O (some centres not stated)
inactive

# outcome recorded in this test, key = CNS(=O)(=O)c1ccc(NC(=O)c2ccccc2C(=O)O)cc1
inactive

# outcome recorded in this test, key = CCC1(CC)C(=O)C=CNC1=O
inactive

# outcome recorded in this test, key = O=c1oc2c(O)c(O)cc3c(=O)oc4c(O)c(O)cc1c4c23
inactive

# outcome recorded in this test, key = CCOC([O-])=Nc1c[n+](N2CCOCC2)no1
inactive

# outcome recorded in this test, key = NCCc1cc(O)c(O)cc1O
inactive

# outcome recorded in this test, key = C1CCC(C(CC2CCCCN2)C2CCCCC2)CC1 (configuration not stated)
inactive

# outcome recorded in this test, key = O=C(NC1CCCCC1)NC1CCCCC1
inactive

# outcome recorded in this test, key = COc1ccc2c(c1)[C@]13CCCC[C@H]1[C@H](C2)N(C)CC3
inactive

# outcome recorded in this test, key = NC(N)=NC(N)=Nc1ccccc1
inactive

# outcome recorded in this test, key = CN(C)CCc1c[nH]c2ccc(C[C@H]3COC(=O)N3)cc12
inactive

# outcome recorded in this test, key = CN1C(=O)CCS(=O)(=O)C1c1ccc(Cl)cc1 (configuration not stated)
inactive

# outcome recorded in this test, key = Cc1cc(=O)n(-c2ccccc2)n1C
inactive

---

assay.details: chemical genetic growth profiling, strain panel (AID 1159580);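 also: tested at 20 µM; growth read once vehicle control cultures reached saturation at 30 °C; 1 = growth at the plate median or of vehicle wells; lower values mean less growth of the strain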
condition: S. cerevisiae deletion strains, growth OD, locus YMR125W, strain sto1, stronger effect = lower value
In all, about 5,500 compounds went through this assay and about 2,000 (36%) were called active. Inconclusive results (about 18%) are left out. Some of the results follow.
Criterion: normalized growth strictly under 1. Met: fulfilled. Not met: not fulfilled.

# check: normalized growth < 1 for c1ccc2c(Cc3c[nH]c4ccccc34)c[nH]c2c1
fulfilled

# check: normalized growth < 1 for C#CC1(O)CCC2C3CCC4=CC(=O)CCC4(C)C3CCC21C (centres undefined)
fulfilled

# check: normalized growth < 1 for CC(=O)OCC(=O)[C@@]1(O)CCC2C3CCC4=CC(=O)CC[C@]4(C)C3[C@@H](O)C[C@@]21C (some centres undefined)
not fulfilled

# check: normalized growth < 1 for C#C[C@]1(O)CCC2C3CCC4=Cc5oncc5C[C@]4(C)C3CC[C@@]21C (some centres undefined)
fulfilled

---

assay.details: chemical genetic growth profiling, strain panel (AID 1159580);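 also: tested at 20 µM; growth read once vehicle control cultures reached saturation at 30 °C; 1 = growth at the plate median or of vehicle wells; lower values mean less growth of the strain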
condition: S. cerevisiae deletion strains, growth OD, locus YNR052C, strain pop2, stronger effect = lower value
The campaign covered roughly 5,500 compounds. About 2,000 (36%) were called active. Roughly 18% stayed inconclusive and do not appear here. The list shows a part of the results.
For each entry below, report its normalized growth value.
Reply with just the number.

Look at this molecule and give its reported normalized growth. O=C(O)c1cc([N+](=O)[O-])ccc1NCCCc1ccccc1
0.949

Look at this molecule and give its reported normalized growth. NCCc1c[nH]c2ccccc12
0.985

Look at this molecule and give its reported normalized growth. C1CCC(C(CC2CCCCN2)C2CCCCC2)CC1 (stereo not given)
0.14

Look at this molecule and give its reported normalized growth. OC(c1cc(C(F)(F)F)nc2c(C(F)(F)F)cccc12)C1CCCCN1 (stereo not given)
0.99

Look at this molecule and give its reported normalized growth. CN1C(=O)CCS(=O)(=O)C1c1ccc(Cl)cc1 (stereo not given)
1.02

Look at this molecule and give its reported normalized growth. COc1ccc(C(=O)c2ccc(O)cc2)c(O)c1O
0.979

Look at this molecule and give its reported normalized growth. NC(N)=NC(N)=Nc1ccccc1
0.991

Look at this molecule and give its reported normalized growth. C=C(C)[C@@H]1CC[C@]2(CO)CC[C@]3(C)[C@H](CCC4[C@@]5(C)CC[C@H](O)C(C)(C)C5CC[C@]43C)C12 (stereo not given in full)
0.998

Look at this molecule and give its reported normalized growth. CC1(C)C=Cc2cc3ccc(=O)oc3cc2O1
0.971

Look at this molecule and give its reported normalized growth. CC(=O)Oc1cc2c(c(C)c1OC(C)=O)CC1OC13C2(C)CCC1(C)C2CC(C)(C(=O)O)CCC2(C)CCC13C (stereo not given)
1.01

Look at this molecule and give its reported normalized growth. CC(NCCC(c1ccccc1)c1ccccc1)c1ccccc1 (stereo not given)
0.92

Look at this molecule and give its reported normalized growth. CN1CCN(CCC=C2c3ccccc3Sc3ccc(S(=O)(=O)N(C)C)cc32)CC1
0.971

Look at this molecule and give its reported normalized growth. O=C(O)[C@H](O)[C@@](O)(Cc1ccc(O)cc1)C(=O)O
0.995

Look at this molecule and give its reported normalized growth. Cc1c(NC(=O)c2cccnc2)c(=O)n(-c2ccccc2)n1C
0.996

Look at this molecule and give its reported normalized growth. CC[C@@H](CO)NC(=O)[C@@H]1C=C2c3cccc4[nH]cc(c34)C[C@H]2N(C)C1
0.996

Look at this molecule and give its reported normalized growth. CC1(C)S[C@@H]2[C@H](NC(=O)Cc3ccccc3)C(=O)N2[C@H]1C(=O)O
1.02

Look at this molecule and give its reported normalized growth. COc1c2c(cc3c1OCO3)C13C=C[C@H](OC)CC1N(C2)CC3O (stereo not given in full)
0.977

Look at this molecule and give its reported normalized growth. CCOc1ccc(NC(C)=O)cc1
0.987

Look at this molecule and give its reported normalized growth. Cc1onc(-c2c(Cl)cccc2Cl)c1C(=O)N[C@@H]1C(=O)N2[C@@H]1SC(C)(C)[C@@H]2C(=O)O
0.997

Look at this molecule and give its reported normalized growth. COc1ccc(C(=O)O)c(O)c1OC
0.981

Look at this molecule and give its reported normalized growth. CC1=CC2C(C(C)C)CCC(C)(O)C2CC1 (stereo not given)
1

Look at this molecule and give its reported normalized growth. CC[C@H]1OC(=O)[C@H](C)[C@@H](O[C@H]2C[C@@](C)(OC)[C@@H](O)[C@H](C)O2)[C@H](C)[C@@H](O[C@@H]2O[C@H](C)C[C@H](N(C)C)[C@H]2O)[C@](C)(O)C[C@@H](C)[C@@H]2N[C@@H](COCCOC)O[C@H]([C@H]2C)[C@]1(C)O
1.01

Look at this molecule and give its reported normalized growth. NC(=O)N1c2ccccc2C=Cc2ccccc21
0.994

Look at this molecule and give its reported normalized growth. O=C(CCBr)N1CCN(C(=O)CCBr)CC1
1

Look at this molecule and give its reported normalized growth. CCOc1cccc(C(=O)c2ccc(O)c(O)c2O)c1
0.739

Look at this molecule and give its reported normalized growth. COc1cc2c(cc1O)CCNC2C (stereo not given)
0.973

Look at this molecule and give its reported normalized growth. CC1=C(O)C(=O)C=C2C1=CC=C1[C@@]2(C)CC[C@@]2(C)[C@@H]3C[C@](C)(C(=O)O)CC[C@]3(C)CC[C@]12C
0.664

Look at this molecule and give its reported normalized growth. COC(=O)[C@]1(C)CC[C@]2(C)CC[C@]3(C)C4=CC=C5C(=CC(=O)C(O)=C5C)[C@]4(C)CC[C@@]3(C)[C@@H]2C1
0.888

Look at this molecule and give its reported normalized growth. CNC(Cc1c[nH]c2ccccc12)C(=O)O (stereo not given)
0.983

Look at this molecule and give its reported normalized growth. COP(=O)(OC)OC(Br)C(Cl)(Cl)Br (stereo not given)
1.01

Look at this molecule and give its reported normalized growth. CC(=O)[C@@]1(O)CCC2C3CCC4=CC(=O)CC[C@]4(C)C3CC[C@@]21C (stereo not given in full)
1

Look at this molecule and give its reported normalized growth. O=c1oc2c(O)c(O)cc3c(=O)oc4c(O)c(O)cc1c4c23
0.365

Look at this molecule and give its reported normalized growth. CN(C)CCc1c[nH]c2ccc(CS(=O)(=O)N3CCCC3)cc12
0.992

Look at this molecule and give its reported normalized growth. c1ccc([C@H]2CN3CCSC3=N2)cc1
1.01

Look at this molecule and give its reported normalized growth. CN1CCN(CCCN2c3ccccc3Sc3ccc(C(F)(F)F)cc32)CC1
0.0713

Look at this molecule and give its reported normalized growth. CO[C@H]1C[C@H](O[C@H]2[C@H](C)[C@@H](OC3O[C@H](C)C[C@H](N(C)C)[C@H]3OC(C)=O)[C@@H](C)C[C@]3(CO3)C(=O)[C@H](C)[C@@H](OC(C)=O)[C@@H](C)[C@@H](C)OC(=O)[C@@H]2C)O[C@@H](C)[C@@H]1OC(C)=O (stereo not given in full)
0.998

Look at this molecule and give its reported normalized growth. COc1cccc(OC)c1C(=O)N[C@@H]1C(=O)N2[C@@H]1SC(C)(C)[C@@H]2C(=O)O
0.987

Look at this molecule and give its reported normalized growth. CC1(C)C(=O)[C@@H]2O[C@@H]2[C@@]2(C)C1CC(=O)[C@]1(C)C2CC[C@@]2(C)[C@H](c3ccoc3)OC(=O)[C@H]3O[C@]321 (stereo not given in full)
0.977

Look at this molecule and give its reported normalized growth. Cc1onc(-c2ccccc2)c1C(=O)NC1C(=O)N2[C@@H]1SC(C)(C)[C@@H]2C(=O)O (stereo not given in full)
1

Look at this molecule and give its reported normalized growth. CC(=O)N[C@@H](Cc1c[nH]c2ccccc12)C(=O)O
1.01
